biological target: CB2 receptor (Homo sapiens, UniProt P34972); experiment: CB2 competitive radioligand binding assay ([3H] WIN-55,212-2); set-up: expressed in transfected cells; host or cells: CHO-K1 cells; conditions: Table 3, ratio of Ki CB1/CB2
Sequence (P34972 whole entry): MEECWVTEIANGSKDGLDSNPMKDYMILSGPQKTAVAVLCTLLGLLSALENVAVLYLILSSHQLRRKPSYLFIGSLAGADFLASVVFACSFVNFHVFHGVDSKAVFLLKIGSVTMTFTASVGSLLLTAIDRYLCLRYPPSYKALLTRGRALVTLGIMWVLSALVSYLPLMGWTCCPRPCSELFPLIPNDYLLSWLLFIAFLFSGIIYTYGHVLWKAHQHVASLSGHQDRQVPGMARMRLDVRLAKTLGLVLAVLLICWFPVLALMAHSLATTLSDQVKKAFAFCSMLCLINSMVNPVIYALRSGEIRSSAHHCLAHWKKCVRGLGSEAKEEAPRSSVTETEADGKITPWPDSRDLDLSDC
Quantity Measured: Fold Selectivity (CB1/CB2)

Field: example entries. Status: answers known.
CCCCCCC(C)(C)c1cc(O)c2c(c1)OC(C)(C)[C@@H]1CC=C(C(=O)N3CCCCC3)C[C@@H]21 | 7.6
CCCCCCC(C)(C)c1cc(O)c2c(c1)OC(C)(C)[C@@H]1CC=C(C(=O)NC(C)(C)C)C[C@@H]21 | 9.7
CCCCCCC(C)(C)c1cc(O)c2c(c1)OC(C)(C)[C@@H]1CC=C(C(=O)NOC(C)(C)C)C[C@@H]21 | 5.7

With those in mind, consider the next compound.
Form: item CCCC(C)(C)c1cc(O)c2c(c1)OC(C)(C)[C@@H]1CC=C(C(=O)NC(C)(C)C(F)(F)F)C[C@@H]21 ; test system CB2 receptor (Homo sapiens, UniProt P34972); Fold Selectivity (CB1/CB2): >60

Data origin: patent US20210284621A1
